- Procedure Text: Absorption and emission spectrum in spin-coated film
- Type: physicochemical
- Run Parameters: film vs toluene solution
Readout Type: Red shift of the spectrum in the film relative to the solution

| Compound | Recorded Result |
| --- | --- |
| CC1CCC(C(C)C)C(Oc2ccc(-c3cc(C(C)C)ccc3N(c3cc(F)c(F)c(F)c3)c3cc(N(c4cc(F)c(F)c(F)c4)c4ccc(C(C)C)cc4-c4ccc(OC5CC(C)CCC5C(C)C)cc4)c4ccc5c(N(c6cc(F)c(F)c(F)c6)c6ccc(C(C)C)cc6-c6ccc(OC7CC(C)CCC7C(C)C)cc6)cc(N(c6cc(F)c(F)c(F)c6)c6ccc(C(C)C)cc6-c6ccc(OC7CC(C)CCC7C(C)C)cc6)c6ccc3c4c65)cc2)C1 (stereo not drawn) | very small red shift |
| CCc1cccc(CC)c1N(c1ccc(C(C)(C)C)cc1)c1cc(N(c2ccc(C(C)(C)C)cc2)c2c(CC)cccc2CC)c2ccc3c(N(c4ccc(C(C)(C)C)cc4)c4c(CC)cccc4CC)cc(N(c4ccc(C(C)(C)C)cc4)c4c(CC)cccc4CC)c4ccc1c2c43 | very small red shift |
| CCCCCCCCc1ccc(-c2cc(N(c3ccc(C(C)(C)C)cc3)c3ccc(C(C)(C)C)cc3)ccc2N(c2cc(F)c(F)c(F)c2)c2cc(N(c3cc(F)c(F)c(F)c3)c3ccc(N(c4ccc(C(C)(C)C)cc4)c4ccc(C(C)(C)C)cc4)cc3-c3ccc(CCCCCCCC)cc3)c3ccc4c(N(c5cc(F)c(F)c(F)c5)c5ccc(N(c6ccc(C(C)(C)C)cc6)c6ccc(C(C)(C)C)cc6)cc5-c5ccc(CCCCCCCC)cc5)cc(N(c5cc(F)c(F)c(F)c5)c5ccc(N(c6ccc(C(C)(C)C)cc6)c6ccc(C(C)(C)C)cc6)cc5-c5ccc(CCCCCCCC)cc5)c5ccc2c3c54)cc1 | very small red shift |

###

- Procedure Text: Absorption and emission spectrum in spin-coated film
- Type: physicochemical
- Run Parameters: spin-coated film on glass
Readout Type: Emission peak of the film
Write your answer as a measured quantity: the number, then the unit.

Known Emission peak of the film results, listed for orientation:
| Record Smiles | Readout Type | Recorded Result |
| --- | --- | --- |
| Fc1cccc(F)c1N(c1ccccc1)c1cc(N(c2ccccc2)c2c(F)cccc2F)c2ccc3c(N(c4ccccc4)c4c(F)cccc4F)cc(N(c4ccccc4)c4c(F)cccc4F)c4ccc1c2c43 | Emission peak of the film | 496 nm |
| CC(C)(C)c1ccc(N(c2ccccc2)c2cc(N(c3ccccc3)c3ccc(C(C)(C)C)cc3)c3ccc4c(N(c5ccccc5)c5ccc(C(C)(C)C)cc5)cc(N(c5ccccc5)c5ccc(C(C)(C)C)cc5)c5ccc2c3c54)cc1 | Emission peak of the film | 546 nm |
| Fc1ccc(N(c2ccccc2)c2cc(N(c3ccccc3)c3ccc(F)cc3)c3ccc4c(N(c5ccccc5)c5ccc(F)cc5)cc(N(c5ccccc5)c5ccc(F)cc5)c5ccc2c3c54)cc1 | Emission peak of the film | 551 nm |
| CCCCCCCCc1ccc(-c2cc(C(C)C)ccc2N(c2cc(F)c(F)c(F)c2)c2cc(N(c3cc(F)c(F)c(F)c3)c3ccc(C(C)C)cc3-c3ccc(CCCCCCCC)cc3)c3ccc4c(N(c5cc(F)c(F)c(F)c5)c5ccc(C(C)C)cc5-c5ccc(CCCCCCCC)cc5)cc(N(c5cc(F)c(F)c(F)c5)c5ccc(C(C)C)cc5-c5ccc(CCCCCCCC)cc5)c5ccc2c3c54)cc1 | Emission peak of the film | 490 nm |

The record that follows has no Emission peak of the film shown yet.
## Input Return Emission peak of the film for the following compound: c1ccc(N(c2ccccc2)c2cc(N(c3ccccc3)c3ccccc3)c3ccc4c(N(c5ccccc5)c5ccccc5)cc(N(c5ccccc5)c5ccccc5)c5ccc2c3c54)cc1
## Output 561 nm
